The reported numbers originate from patent US8637664B2.

Hi there, I'd appreciate the recorded Concentration at which DNA binding is observed, ICB1 for every entry that follows.
Tested on: 170 bp sequence of the human Topo-IIa promoter
Experiment: DNase I footprinting on Topo-IIa promoter (ICB1, ICB2 sites)
Type: binding
Settings: ICB1 site
Kindly provide the numeric value in µM only, without the unit symbol.

Task item: If you can, please state the reported Concentration at which DNA binding is observed, ICB1 value of COC(=O)c1cc(NC(=O)c2cc(NC(=O)CCCOc3cc4c(cc3OC)C(=O)N3CCC[C@H]3C=N4)cn2C)cn1C .
Reply: 1

Task item: If you can, please state the reported Concentration at which DNA binding is observed, ICB1 value of COC(=O)c1cc(NC(=O)c2cc(NC(=O)c3nc(NC(=O)CCCOc4cc5c(cc4OC)C(=O)N4CCC[C@H]4C=N5)cn3C)cn2C)cn1C .
Reply: 5

Task item: If you can, please state the reported Concentration at which DNA binding is observed, ICB1 value of COC(=O)c1cc(NC(=O)c2cc(NC(=O)c3csc(NC(=O)CCCOc4cc5c(cc4OC)C(=O)N4CCC[C@H]4C=N5)n3)cn2C)cn1C .
Reply: 5

---

System: calf thymus DNA (CT-DNA)
Assay: DNA thermal denaturation (melting) studies
Assay type: binding
Details: CT-DNA 100 μM DNAp, compound 20 μM, 37 °C, pH 7.00, 72 hours
Description: […]
measured_property: Induced ΔTm after incubation 72 hours (°C)
Kindly provide the numeric value in °C only, without the unit symbol.

Task item: If you can, please state the reported Induced ΔTm after incubation 72 hours value of CCOC(=O)c1nc(NC(=O)c2cc(NC(=O)CCCOc3cc4c(cc3OC)C(=O)N3CCC[C@H]3C=N4)cn2C)cn1C [Compound 65] .
Reply: 11.3

Task item: If you can, please state the reported Induced ΔTm after incubation 72 hours value of COC(=O)c1cc(NC(=O)c2cc(NC(=O)c3csc(NC(=O)CCCOc4cc5c(cc4OC)C(=O)N4CCC[C@H]4C=N5)n3)cn2C)cn1C [Compound 69] .
Reply: 18.5

Task item: If you can, please state the reported Induced ΔTm after incubation 72 hours value of COC(=O)c1cc(NC(=O)c2csc(NC(=O)CCCOc3cc4c(cc3OC)C(=O)N3CCC[C@H]3C=N4)n2)cn1C [Compound 55] .
Reply: 16.1

Task item: If you can, please state the reported Induced ΔTm after incubation 72 hours value of COC(=O)c1cc(NC(=O)c2nc(NC(=O)c3cc(NC(=O)CCCOc4cc5c(cc4OC)C(=O)N4CCC[C@H]4C=N5)cn3C)cn2C)cn1C [Compound 71] .
Reply: 17.2

Task item: If you can, please state the reported Induced ΔTm after incubation 72 hours value of CCOC(=O)c1nc(NC(=O)c2cc(NC(=O)c3nc(NC(=O)CCCOc4cc5c(cc4OC)C(=O)N4CCC[C@H]4C=N5)cn3C)cn2C)cn1C [Compound 81] .
Reply: 16.4

Task item: If you can, please state the reported Induced ΔTm after incubation 72 hours value of CCOC(=O)c1csc(NC(=O)c2cc(NC(=O)c3cc(NC(=O)CCCOc4cc5c(cc4OC)C(=O)N4CCC[C@H]4C=N5)cn3C)cn2C)n1 [Compound 89] .
Reply: 18.8

---

System: calf thymus DNA (CT-DNA)
Experiment: DNA thermal denaturation (melting) studies
Assay type: binding
Details: CT-DNA 100 μM DNAp, compound 20 μM, 37 °C, pH 7.00, 18 hours
Criterion: Induced ΔTm after incubation 18 hours meeting or surpassing 20 °C. Met: 1 (yes). Not met: 0 (no).

Task item: Has CCOC(=O)c1csc(NC(=O)c2cc(NC(=O)c3csc(NC(=O)CCCOc4cc5c(cc4OC)C(=O)N4CCC[C@H]4C=N5)n3)cn2C)n1 a recorded Induced ΔTm after incubation 18 hours greater than or equal to 20 °C?
Reply: 0 (no)

Task item: Has COC(=O)c1cc(NC(=O)c2cc(NC(=O)c3cc(NC(=O)CCCOc4cc5c(cc4OC)C(=O)N4CCC[C@H]4C=N5)cn3C)cn2C)cn1C a recorded Induced ΔTm after incubation 18 hours greater than or equal to 20 °C?
Reply: 1 (yes)

Task item: Has CCOC(=O)c1nc(NC(=O)c2nc(NC(=O)c3cc(NC(=O)CCCOc4cc5c(cc4OC)C(=O)N4CCC[C@H]4C=N5)cn3C)cn2C)cn1C a recorded Induced ΔTm after incubation 18 hours greater than or equal to 20 °C?
Reply: 0 (no)

Task item: Has CCOC(=O)c1csc(NC(=O)c2cc(NC(=O)CCCOc3cc4c(cc3OC)C(=O)N3CCC[C@H]3C=N4)cn2C)n1 a recorded Induced ΔTm after incubation 18 hours greater than or equal to 20 °C?
Reply: 0 (no)

Task item: Has COC(=O)c1cc(NC(=O)c2cc(NC(=O)c3cc(NC(=O)CCOc4cc5c(cc4OC)C(=O)N4CCC[C@H]4C=N5)cn3C)cn2C)cn1C a recorded Induced ΔTm after incubation 18 hours greater than or equal to 20 °C?
Reply: 0 (no)

Task item: Has CCOC(=O)c1csc(NC(=O)c2csc(NC(=O)c3cc(NC(=O)CCCOc4cc5c(cc4OC)C(=O)N4CCC[C@H]4C=N5)cn3C)n2)n1 a recorded Induced ΔTm after incubation 18 hours greater than or equal to 20 °C?
Reply: 0 (no)

Task item: Has COC(=O)c1cc(NC(=O)c2cc(NC(=O)c3cc(NC(=O)c4cc(NC(=O)c5cc(NC(=O)CCCOc6cc7c(cc6OC)C(=O)N6CCC[C@H]6C=N7)cn5C)cn4C)cn3C)cn2C)cn1C a recorded Induced ΔTm after incubation 18 hours greater than or equal to 20 °C?
Reply: 0 (no)

Task item: Has COC(=O)c1cc(NC(=O)c2csc(NC(=O)CCCOc3cc4c(cc3OC)C(=O)N3CCC[C@H]3C=N4)n2)cn1C a recorded Induced ΔTm after incubation 18 hours greater than or equal to 20 °C?
Reply: 0 (no)

Task item: Has COC(=O)c1cc(NC(=O)c2cc(NC(=O)c3nc(NC(=O)CCCOc4cc5c(cc4OC)C(=O)N4CCC[C@H]4C=N5)cn3C)cn2C)cn1C a recorded Induced ΔTm after incubation 18 hours greater than or equal to 20 °C?
Reply: 1 (yes)

Task item: Has CCOC(=O)c1csc(NC(=O)c2cc(NC(=O)c3cc(NC(=O)CCCOc4cc5c(cc4OC)C(=O)N4CCC[C@H]4C=N5)cn3C)cn2C)n1 a recorded Induced ΔTm after incubation 18 hours greater than or equal to 20 °C?
Reply: 0 (no)

Task item: Has COC(=O)c1cc(NC(=O)c2csc(NC(=O)c3cc(NC(=O)CCCOc4cc5c(cc4OC)C(=O)N4CCC[C@H]4C=N5)cn3C)n2)cn1C a recorded Induced ΔTm after incubation 18 hours greater than or equal to 20 °C?
Reply: 1 (yes)
